- condition_parameters: 303.15 K; 100 kPa; Liquid; Vibrating tube method
measured_metric: mass density (kg/m3)
Give the value in kg/m3 but do not write kg/m3 after it.

Exam item: Provide mass density value for the following molecule: CCCCCCC(=O)[O-].CN(C)C(=[NH2+])N(C)C [1,1,3,3-tetramethylguanidinium heptanoate]
Marked response: 979.2

Exam item: Provide mass density value for the following molecule: CCCCCCCC(=O)[O-].CN(C)C(=[NH2+])N(C)C [1,1,3,3-tetramethylguanidinium octanoate]
Marked response: 962.28

Exam item: Provide mass density value for the following molecule: CCCC(=O)[O-].CN(C)C(=[NH2+])N(C)C [1,1,3,3-tetramethylguanidinium butanoate]
Marked response: 1025.27

Exam item: Provide mass density value for the following molecule: CCCCC(=O)[O-].CN(C)C(=[NH2+])N(C)C [1,1,3,3-tetramethylguanidinium pentanoate]
Marked response: 1003.4

Exam item: Provide mass density value for the following molecule: CCCCCC(=O)[O-].CN(C)C(=[NH2+])N(C)C [1,1,3,3-tetramethylguanidinium hexanoate]
Marked response: 990.61

====

- condition_parameters: 328.15 K; 100 kPa; Liquid; Falling or rolling sphere viscometry
measured_metric: viscosity (mPa·s)
Give the value in mPa·s but do not write mPa·s after it.

Exam item: Provide viscosity value for the following compound: CCCCCC(=O)[O-].CN(C)C(=[NH2+])N(C)C [1,1,3,3-tetramethylguanidinium hexanoate]
Marked response: 118.5

Exam item: Provide viscosity value for the following compound: CCCCCCC(=O)[O-].CN(C)C(=[NH2+])N(C)C [1,1,3,3-tetramethylguanidinium heptanoate]
Marked response: 126.7

Exam item: Provide viscosity value for the following compound: CCCC(=O)[O-].CN(C)C(=[NH2+])N(C)C [1,1,3,3-tetramethylguanidinium butanoate]
Marked response: 158.5

Exam item: Provide viscosity value for the following compound: CCCCC(=O)[O-].CN(C)C(=[NH2+])N(C)C [1,1,3,3-tetramethylguanidinium pentanoate]
Marked response: 111.4

Exam item: Provide viscosity value for the following compound: CCCCCCCC(=O)[O-].CN(C)C(=[NH2+])N(C)C [1,1,3,3-tetramethylguanidinium octanoate]
Marked response: 105.7

====

Please respond with reported mass density for every item in the list.
- condition_parameters: 333.15 K; 100 kPa; Liquid; Vibrating tube method
Give the value in kg/m3 but do not write kg/m3 after it.

Exam item: Provide mass density value for the following compound: CCCCC(=O)[O-].CN(C)C(=[NH2+])N(C)C [1,1,3,3-tetramethylguanidinium pentanoate]
Marked response: 982.98

Exam item: Provide mass density value for the following compound: CCCC(=O)[O-].CN(C)C(=[NH2+])N(C)C [1,1,3,3-tetramethylguanidinium butanoate]
Marked response: 1004.24

Exam item: Provide mass density value for the following compound: CCCCCC(=O)[O-].CN(C)C(=[NH2+])N(C)C [1,1,3,3-tetramethylguanidinium hexanoate]
Marked response: 969.78

Exam item: Provide mass density value for the following compound: CCCCCCC(=O)[O-].CN(C)C(=[NH2+])N(C)C [1,1,3,3-tetramethylguanidinium heptanoate]
Marked response: 957.74

Exam item: Provide mass density value for the following compound: CCCCCCCC(=O)[O-].CN(C)C(=[NH2+])N(C)C [1,1,3,3-tetramethylguanidinium octanoate]
Marked response: 942.23

====

- assay_method_text: refractive index (Na D-line) (dimensionless)
- condition_parameters: 308.15 K; 100 kPa; Liquid; Standard Abbe refractometry
measured_metric: refractive index
Format: numeric value only, no unit, no commentary.

Exam item: Provide refractive index value for the following compound: CCCCCCC(=O)[O-].CN(C)C(=[NH2+])N(C)C [1,1,3,3-tetramethylguanidinium heptanoate]
Marked response: 1.474

Exam item: Provide refractive index value for the following compound: CCCC(=O)[O-].CN(C)C(=[NH2+])N(C)C [1,1,3,3-tetramethylguanidinium butanoate]
Marked response: 1.4781

Exam item: Provide refractive index value for the following compound: CCCCCC(=O)[O-].CN(C)C(=[NH2+])N(C)C [1,1,3,3-tetramethylguanidinium hexanoate]
Marked response: 1.4638

Exam item: Provide refractive index value for the following compound: CCCCC(=O)[O-].CN(C)C(=[NH2+])N(C)C [1,1,3,3-tetramethylguanidinium pentanoate]
Marked response: 1.4718

Exam item: Provide refractive index value for the following compound: CCCCCCCC(=O)[O-].CN(C)C(=[NH2+])N(C)C [1,1,3,3-tetramethylguanidinium octanoate]
Marked response: 1.4612

====

- condition_parameters: 293.15 K; 100 kPa; Liquid; Vibrating tube method
Entry flag: 1 if mass density reaches 1000 kg/m3; 0 if it does not.

Exam item: Hi, just wondering whether CCCC(=O)[O-].CN(C)C(=[NH2+])N(C)C [1,1,3,3-tetramethylguanidinium butanoate] shows mass density of 1000 kg/m3 or higher.
Marked response: 1

Exam item: Hi, just wondering whether CCCCCCCC(=O)[O-].CN(C)C(=[NH2+])N(C)C [1,1,3,3-tetramethylguanidinium octanoate] shows mass density of 1000 kg/m3 or higher.
Marked response: 0

====

Please respond with reported refractive index for every item in the list.
- assay_method_text: refractive index (Na D-line) (dimensionless)
- condition_parameters: 313.15 K; 100 kPa; Liquid; Standard Abbe refractometry
Format: numeric value only, no unit, no commentary.

Exam item: Provide refractive index value for the following molecule: CCCCC(=O)[O-].CN(C)C(=[NH2+])N(C)C [1,1,3,3-tetramethylguanidinium pentanoate]
Marked response: 1.4699

Exam item: Provide refractive index value for the following molecule: CCCCCCCC(=O)[O-].CN(C)C(=[NH2+])N(C)C [1,1,3,3-tetramethylguanidinium octanoate]
Marked response: 1.4589

Exam item: Provide refractive index value for the following molecule: CCCCCCC(=O)[O-].CN(C)C(=[NH2+])N(C)C [1,1,3,3-tetramethylguanidinium heptanoate]
Marked response: 1.4722

Exam item: Provide refractive index value for the following molecule: CCCCCC(=O)[O-].CN(C)C(=[NH2+])N(C)C [1,1,3,3-tetramethylguanidinium hexanoate]
Marked response: 1.4619

Exam item: Provide refractive index value for the following molecule: CCCC(=O)[O-].CN(C)C(=[NH2+])N(C)C [1,1,3,3-tetramethylguanidinium butanoate]
Marked response: 1.4766

====

- condition_parameters: 298.15 K; 100 kPa; Liquid; Single path-length method
Please respond with reported speed of sound for every item in the list.
Give the value in m/s but do not write m/s after it.

Exam item: Provide speed of sound value for the following molecule: CCCCC(=O)[O-].CN(C)C(=[NH2+])N(C)C [1,1,3,3-tetramethylguanidinium pentanoate]
Marked response: 1524.7

Exam item: Provide speed of sound value for the following molecule: CCCCCC(=O)[O-].CN(C)C(=[NH2+])N(C)C [1,1,3,3-tetramethylguanidinium hexanoate]
Marked response: 1522.2

Exam item: Provide speed of sound value for the following molecule: CCCCCCC(=O)[O-].CN(C)C(=[NH2+])N(C)C [1,1,3,3-tetramethylguanidinium heptanoate]
Marked response: 1517.9

Exam item: Provide speed of sound value for the following molecule: CCCCCCCC(=O)[O-].CN(C)C(=[NH2+])N(C)C [1,1,3,3-tetramethylguanidinium octanoate]
Marked response: 1481.3

Exam item: Provide speed of sound value for the following molecule: CCCC(=O)[O-].CN(C)C(=[NH2+])N(C)C [1,1,3,3-tetramethylguanidinium butanoate]
Marked response: 1576.5

====

- condition_parameters: 328.15 K; 100 kPa; Liquid; Vibrating tube method
Please respond with reported mass density for every item in the list.
Give the value in kg/m3 but do not write kg/m3 after it.

Exam item: Provide mass density value for the following compound: CCCCCCCC(=O)[O-].CN(C)C(=[NH2+])N(C)C [1,1,3,3-tetramethylguanidinium octanoate]
Marked response: 945.59

Exam item: Provide mass density value for the following compound: CCCCCC(=O)[O-].CN(C)C(=[NH2+])N(C)C [1,1,3,3-tetramethylguanidinium hexanoate]
Marked response: 973.32

Exam item: Provide mass density value for the following compound: CCCCC(=O)[O-].CN(C)C(=[NH2+])N(C)C [1,1,3,3-tetramethylguanidinium pentanoate]
Marked response: 986.42

Exam item: Provide mass density value for the following compound: CCCCCCC(=O)[O-].CN(C)C(=[NH2+])N(C)C [1,1,3,3-tetramethylguanidinium heptanoate]
Marked response: 961.39

Exam item: Provide mass density value for the following compound: CCCC(=O)[O-].CN(C)C(=[NH2+])N(C)C [1,1,3,3-tetramethylguanidinium butanoate]
Marked response: 1007.79

====

Please respond with reported refractive index for every item in the list.
- assay_method_text: refractive index (Na D-line) (dimensionless)
- condition_parameters: 333.15 K; 100 kPa; Liquid; Standard Abbe refractometry
Format: numeric value only, no unit, no commentary.

Exam item: Provide refractive index value for the following compound: CCCCC(=O)[O-].CN(C)C(=[NH2+])N(C)C [1,1,3,3-tetramethylguanidinium pentanoate]
Marked response: 1.4633

Exam item: Provide refractive index value for the following compound: CCCCCCC(=O)[O-].CN(C)C(=[NH2+])N(C)C [1,1,3,3-tetramethylguanidinium heptanoate]
Marked response: 1.4656

Exam item: Provide refractive index value for the following compound: CCCCCC(=O)[O-].CN(C)C(=[NH2+])N(C)C [1,1,3,3-tetramethylguanidinium hexanoate]
Marked response: 1.4544

Exam item: Provide refractive index value for the following compound: CCCCCCCC(=O)[O-].CN(C)C(=[NH2+])N(C)C [1,1,3,3-tetramethylguanidinium octanoate]
Marked response: 1.4501

Exam item: Provide refractive index value for the following compound: CCCC(=O)[O-].CN(C)C(=[NH2+])N(C)C [1,1,3,3-tetramethylguanidinium butanoate]
Marked response: 1.4716

Where do these numbers come from? They come from the NIST ThermoML archive (doi:10.1021/acs.jced.9b00377).
